Cited source for all entries: patent US10611760B2

Below, each entry is listed with its recorded IC50.
Molecular target: orexin-1 (Homo sapiens)
Sequence (O43613 1-425): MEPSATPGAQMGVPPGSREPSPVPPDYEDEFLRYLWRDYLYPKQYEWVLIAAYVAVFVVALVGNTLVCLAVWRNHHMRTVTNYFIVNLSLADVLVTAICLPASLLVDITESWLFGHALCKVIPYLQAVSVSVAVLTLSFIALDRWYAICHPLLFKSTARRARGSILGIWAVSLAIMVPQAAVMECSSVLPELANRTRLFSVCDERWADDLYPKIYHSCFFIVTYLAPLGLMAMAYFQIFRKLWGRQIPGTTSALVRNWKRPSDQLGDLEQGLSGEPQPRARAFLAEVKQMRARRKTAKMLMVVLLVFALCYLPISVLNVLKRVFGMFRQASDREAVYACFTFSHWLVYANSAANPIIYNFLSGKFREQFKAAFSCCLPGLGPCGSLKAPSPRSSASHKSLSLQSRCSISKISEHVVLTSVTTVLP
Assay: Antagonism against orexin-1 in the aforementioned (above identified) intracellular calcium assays

Below: 2 molecules and their reported IC50.
>  <molecule>
CC[C@@H](CNc1ccc(Cl)cn1)NC(=O)c1cc(C)ccc1N1CCN(C)CC1

>  <IC50>
> 10 µM

$$$$
>  <molecule>
Cc1ccc(-n2nccn2)c(C(=O)N(C)C(CNc2ccc(Cl)cn2)C2COC2)c1 (stereo not drawn)

>  <IC50>
> 10 µM

$$$$

q: # return recorded IC50 for entry CC[C@@H](COc1nc2ccccc2n1C)NC(=O)c1cc(C)ccc1-n1nccn1
a: > 10 µM
